Origin of measurements: patent US20170143843A1

- assay target: T1, human factor D (human, UniProt P00746 26-253)
- T1 construct: also called fD
- T1 sequence (P00746 26-253 limits assumed): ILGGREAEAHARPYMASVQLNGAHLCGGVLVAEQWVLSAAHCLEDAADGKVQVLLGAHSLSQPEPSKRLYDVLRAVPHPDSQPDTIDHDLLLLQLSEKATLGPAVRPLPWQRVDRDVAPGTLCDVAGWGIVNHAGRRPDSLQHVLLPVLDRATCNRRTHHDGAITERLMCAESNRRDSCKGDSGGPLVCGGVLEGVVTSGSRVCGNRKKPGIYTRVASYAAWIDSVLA
- test method notes: SPR Biacore T200, Fab captured by anti-huFab, human fD injected, 25 C
Quick reference for Kd among some binders
Just the number please, in nM, no unit attached.

Query block: Reported Kd, binder AFD.v12 (SIESD.N103D; VL-D28S:D30E:D31S VH-D62E VH-N103D) (Fab, V domains shown, Fab variant of aFD.WT) VH: EVQLVQSGPELKKPGASVKVSCKASGYTFTNYGMNWVRQAPGQGLEWMGWINTYTGETTYAEDFKGRFVFSLDTSVSTAYLQISSLKAEDTAVYYCEREGGVDNWGQGTLVTVSS VL: DIQVTQSPSSLSASVGDRVTITCITSTSIESDMNWYQQKPGKVPKLLISGGNTLRPGVPSRFSGSGSGTDFTLTISSLQPEDVATYYCLQSDSLPYTFGQGTKVEIKR : ____
Result block: 0.023

Query block: So what's the measured Kd for this one? AFD.v10 (SIESD.D92E; VL-D28S:D30E:D31S VH-D62E VL-D92E) (Fab, V domains shown, Fab variant of aFD.WT) VH: EVQLVQSGPELKKPGASVKVSCKASGYTFTNYGMNWVRQAPGQGLEWMGWINTYTGETTYAEDFKGRFVFSLDTSVSTAYLQISSLKAEDTAVYYCEREGGVNNWGQGTLVTVSS VL: DIQVTQSPSSLSASVGDRVTITCITSTSIESDMNWYQQKPGKVPKLLISGGNTLRPGVPSRFSGSGSGTDFTLTISSLQPEDVATYYCLQSESLPYTFGQGTKVEIKR
Result block: 0.07

Query block: Kd lookup needed for AFD.v4 (VL-D32S) (Fab, V domains shown, Fab variant of aFD.WT) VH: EVQLVQSGPELKKPGASVKVSCKASGYTFTNYGMNWVRQAPGQGLEWMGWINTYTGETTYADDFKGRFVFSLDTSVSTAYLQISSLKAEDTAVYYCEREGGVNNWGQGTLVTVSS VL: DIQVTQSPSSLSASVGDRVTITCITSTDIDDSMNWYQQKPGKVPKLLISGGNTLRPGVPSRFSGSGSGTDFTLTISSLQPEDVATYYCLQSDSLPYTFGQGTKVEIKR , thanks.
Result block: 0.026

Query block: Sample AFD.v15 (SIESD.N103S.D92E; VL-D28S:D30E:D31S:D92E VH-D62E:N103S) (Fab, V domains shown, Fab variant of aFD.WT) VH: EVQLVQSGPELKKPGASVKVSCKASGYTFTNYGMNWVRQAPGQGLEWMGWINTYTGETTYAEDFKGRFVFSLDTSVSTAYLQISSLKAEDTAVYYCEREGGVSNWGQGTLVTVSS VL: DIQVTQSPSSLSASVGDRVTITCITSTSIESDMNWYQQKPGKVPKLLISGGNTLRPGVPSRFSGSGSGTDFTLTISSLQPEDVATYYCLQSESLPYTFGQGTKVEIKR — what was its Kd?
Result block: 0.102

Query block: Given the binder AFD.v13 (SIESD.N103Q; VL-D28S:D30E:D31S VH-D62E VH-N103Q) (Fab, V domains shown, Fab variant of aFD.WT) VH: EVQLVQSGPELKKPGASVKVSCKASGYTFTNYGMNWVRQAPGQGLEWMGWINTYTGETTYAEDFKGRFVFSLDTSVSTAYLQISSLKAEDTAVYYCEREGGVQNWGQGTLVTVSS VL: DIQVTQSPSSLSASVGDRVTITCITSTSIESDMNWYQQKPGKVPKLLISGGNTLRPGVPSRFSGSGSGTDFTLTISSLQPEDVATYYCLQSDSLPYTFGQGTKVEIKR , what is its reported Kd?
Result block: 0.06
